Compiled record: IC50 values for UniProt:Q07817 across several sources.
Numbers only, in nM.

Here is how some compounds turned out for IC50.
COC(=O)c1ccc(O)c2nc3c(C=O)c(O)c(-c4c(O)c(C=O)c5nc6c(O)ccc(C(=O)OC)c6nc5c4O)c(O)c3nc12    15
COc1ccc(COc2ccc(N3CCc4cccc(C(=O)Nc5nc6ccccc6s5)c4C3)nc2C(=O)O)cc1    19000
CCCN(CCC)c1nn(-c2ccc(C(=O)NS(=O)(=O)c3ccc4c(Cl)ccc(Br)c4c3)cc2C(=O)N2Cc3ccccc3C[C@H]2CO)c(C)c1Cl    40

Under UniProt:Q07817: report IC50 of O=C(Nc1nc2ccccc2s1)c1cccc2c1CN(c1ccc(CCCOc3ccc(OCCN4CCCC4)cc3)c(C(=O)O)n1)CC2 . 1.1

---

Compiled record: pIC50 values for Bcl-2-like protein 1 (Homo sapiens) across several sources.
One number for each entry, as −log10 of the molar value.

Here is how some compounds turned out for pIC50.
CCCCN(CCCC)C(=O)c1nn(-c2ccc(C(=O)NS(=O)(=O)c3ccc4ccc(OC(C)C)cc4c3)cc2C(=O)N2CCc3ccccc3C2)c(C)c1Cl    7.70
CCN(CC)C[C@@H]1COCCN1CC[C@H](CSc1ccccc1)Nc1ccc(S(=O)(=O)NC(=O)c2ccc(N3CCC([C@@H](O)c4ccccc4-c4ccc(Cl)cc4)CC3)cc2)cc1S(=O)(=O)C(F)(F)F    9.30
CCCCN(CCCC)C(=O)c1cn(CC(=O)NC)c(-c2ccc(C(=O)NS(=O)(=O)c3ccc4ccccc4c3)cc2C(=O)N2CCc3ccccc3C2)n1    7.15
CCCCN(CCCC)C(=O)c1nn(-c2ccc(C(=O)NS(=O)(=O)c3ccc4c(c3)CCN4CC)cc2C(=O)N2CCc3ccccc3C2)c(C)c1Cl    8.00
CCCCN(CCCC)c1ncc(Cl)c(-c2ccc(C(=O)NS(=O)(=O)c3ccc4ccccc4c3)cc2C(=O)N2Cc3ccccc3C[C@H]2CO)n1    7.10
COC(=O)c1ccc(O)c2nc3c(CO)c(O)c(-c4c(O)c(CO)c5nc6c(O)ccc(C(=O)OC)c6nc5c4O)c(O)c3nc12    6.91

Turning now to a further record.
Output measured pIC50 for this item: CCCCN(CCCC)C(=O)c1nn(-c2ccc(C(=O)NS(=O)(=O)c3ccc4ccccc4c3)cc2C(=O)N2Cc3ccccc3C[C@H]2COCCCOC)c(C)c1Cl 7.52

---

Compiled record: pIC50 values for UniProtKB Q07817 across several sources.
pIC50: −log10 of the molar value.

Here is how some compounds turned out for pIC50.
O=C(NS(=O)(=O)c1ccc(NCC2CCOCC2)c([N+](=O)[O-])c1)c1ccc(N2CCN(C[C@H]3Cc4ccccc4CN3C(=O)C3CC3)CC2)cc1Oc1cnc2[nH]ccc2c1    < 5.40
O=C(c1ccc(Oc2ccccc2)cc1)c1cc(-c2cccc3ccccc23)c(O)c(O)c1O    < 6.00

Turning now to a further record.
Output measured pIC50 for this item: CCCCN(CCCC(F)(F)F)C(=O)c1nn(-c2ccc(C(=O)NS(=O)(=O)c3ccc4ccccc4c3)cc2C(=O)N2CCc3ccccc3C2)c(C)c1Cl 7.10

---

Compiled record: IC50 values for Bcl-2-like protein 1 (Homo sapiens) across several sources.

Here is how some compounds turned out for IC50.
CC(C)c1cc(C(=O)Cc2ccc3ccccc3c2)c(O)c(O)c1O    > 1 µM
Cn1ncc(Oc2cc(N3CCC(CN4CCCCC4c4ccc(Cl)cc4)CC3)ccc2C(=O)NS(=O)(=O)c2ccc(NCC3CCOCC3)c([N+](=O)[O-])c2)cc1=O (stereo not drawn)    > 4 µM
CC(C)C(=O)N1Cc2ccc(Cl)cc2C[C@H]1CN1CCN(c2ccc(C(=O)NS(=O)(=O)c3ccc(NCC4CCOCC4)c([N+](=O)[O-])c3)c(Oc3cnc4[nH]ccc4c3)c2)CC1    > 4 µM
O=C(NS(=O)(=O)c1ccc(NCC2CCOCC2)c([N+](=O)[O-])c1)c1ccc(N2CCC(CN3C(=O)C4(CCNCC4)C3c3ccc(Cl)cc3)CC2)cc1Oc1cnc2[nH]ccc2c1 (stereo not drawn)    2 to 4 µM

Fill in IC50 for each of the 3 compounds listed.
1. CCCCN(CCCC)C(=O)c1cn(C)c(-c2ccc(C(=O)NS(=O)(=O)c3ccc4ccccc4c3)cc2C(=O)N2CCc3ccccc3C2)n1
2. O=C(c1cc(S(=O)(=O)N2CCc3ccccc3C2)c(O)c(O)c1O)N1CCc2ccc(S(=O)(=O)NCCc3ccc(Cl)cc3)cc2C1
3. O=C(c1cc(S(=O)(=O)N2CCc3ccccc3C2)c(O)c(O)c1O)N1CCc2ccc(S(=O)(=O)NCCc3ccc(Oc4ccccc4)cc3)cc2C1

0.04 µM
> 1 µM
> 1 µM

Fill in IC50 for each of the 5 compounds listed.
1. O=C(c1cc(S(=O)(=O)N2CCc3ccccc3C2)c(O)c(O)c1O)N1CCc2ccc(S(=O)(=O)N[C@@H](Cc3ccccc3)C(=O)N3CCCCC3)cc2C1
2. CCCCc1c(-c2ccc(C(=O)NS(=O)(=O)c3ccc4ccccc4c3)cc2C(=O)N2CCc3ccccc3C2)c(C(=O)OCC)nn1-c1ccc(Oc2cccc(Cl)c2)cc1
3. O=C(O)c1nc(-c2ccc3c(c2)N(C(=O)Nc2nc4ccccc4s2)CCC3)sc1/C=C/c1ccccc1
4. O=C(c1cc(S(=O)(=O)N2CCc3ccccc3C2)c(O)c(O)c1O)N1CCc2ccc(S(=O)(=O)NCc3ccccc3)cc2C1
5. CCCCN(CCCC)C(=O)c1nn(-c2ccc(C(=O)NS(=O)(=O)c3ccc4c(c3)c(Cl)cn4CC)cc2C(=O)N2CCc3ccccc3C2)c(C)c1Cl

["> 1 µM", "0.06 µM", "0.003 µM", "> 1 µM", "0.04 µM"]
